measure name: melting point (°C)

For orientation, consider the following solved cases.
- OC1CSC(Oc2cc(-c3ccncc3)cc(F)c2F)C(O)C1O (stereo not given): 151
- O=C(CC(=O)c1cccc(C(F)(F)F)c1NC(=O)C(F)F)Nc1nccs1: 206

1. CC(=O)c1c(CBr)n(S(=O)(=O)c2ccccc2)c2ccc(Cl)cc12
2. CC(C)(C)CCNC(=O)NCCCl
I'm curious, which of these has a smaller melting point number: 1 or 2 ? Pick one and reply with its label.
2

* * *

Reported melting point by item:

Determine its reported melting point: `CCOC(=O)C(=O)c1ccc(OCC(=O)c2c(C)cc(C)cc2C)cc1`
68.5 to 70 °C

// fetch melting point given entry `CN(C)c1ccc(-c2noc([C@H]3CCCN(C(=O)c4ccc(F)cc4)C3)n2)cc1`
147 to 153 °C

Write down melting point measured for item `COc1ccc2c(c1)CCC(=Cc1ccc(OCCCN(C)C)cc1)C2=O`
68 to 71 °C

* * *

measure name: melting point

Please review the entries below; each comes with its answer.
• Clc1ccc(OCSc2ncc(Cl)cn2)cc1 = 120 °C
• CC(C)(C)OC(=O)N1C[C@@H](Sc2ccccc2)C[C@H]1C(=O)O = 110 to 118 °C
• O=C(O)c1ccccc1Oc1ccc(C(F)(F)F)cc1NS(=O)(=O)c1ccc(F)cc1 = 159 to 160 °C
• COc1cccc(OC)c1-c1cc(C(=O)NC2(C(=O)O)C3CC4CC(C3)CC2C4)nn1-c1ccnc2cc(Cl)ccc12 (stereo unspecified) = > 260 °C
• CN(C)c1nc(-c2cccc3ccccc23)co1 = 30 to 32 °C

Look up and state reported melting point for `CC(C)[C@H](NC(=O)OCc1ccccc1)C(=O)N[C@H](C=O)Cc1ccc(OCc2ccccc2)cc1`
160 to 162 °C

Item `O=C(O)CCCCCCCCCN1C(=O)c2ccccc2C1=O` : provide melting point
58 to 60 °C

For the compound CC1C[C@H]2[C@@H](O1)[C@@H](O)C(=O)N2Cc1ccccc1 (relative stereo) , give its reported melting point.
98 to 101 °C

* * *

Reported melting point values are given for each entry in this list.

• COc1cc(C=O)cc2c1OCCC2 = 81 °C

Answer with reported melting point of `CS(=O)(=O)NCCNc1ccc([N+](=O)[O-])cc1`
154 °C

# return recorded melting point for input CC(=O)OC1CC2(C)C(=O)CCC2C2CCC3=CC(=O)C=CC3(C)C12F (centres undefined)
177 to 178 °C

Recall and state the measured melting point for `O=C(O)COc1ccc(SCc2ccc(OCc3ccc(F)c(C(F)(F)F)c3)cc2)c2c1CCC2` .
116 to 117 °C

Indicate its recorded melting point; the molecule in question is `Cc1cc(C)cc(Cc2c(C(C)C)c(=O)[nH]c(=O)n2C/C=C/c2ccccc2)c1`
180 to 181 °C

Let me know recorded melting point for CC1CCCN1CCCN1CCN(CCN2CCCC2)C1=C(C#N)C#N (centres undefined) , thanks.
95 to 96 °C

Read off the recorded melting point for COc1ccc2c(c1)C(c1ccc(OCCN(C(C)C)C(C)C)cc1)c1c-2ccc2ccccc12 (centres undefined)
106 to 115 °C

Consider the molecule `COc1nccc(C)c1NC(=O)c1cccnc1NC1CC1` . State its measured melting point.
151 to 152 °C

Quickly give me recorded melting point for `CCCCNC(=O)[C@H](C)C[C@H](O)[C@H](CC1CCCCC1)NC(=O)[C@H](Cc1cscn1)NC(=O)[C@@H](CC(=O)N1CCOCC1)Cc1ccc(OC)cc1`
130 to 132 °C

* * *

Entries annotated with measured melting point

* Oc1ccc(C2CCC3(CC2)OCCO3)cc1 | 152 to 153 °C
* CCCc1c(OCc2ccc(C(=O)NC(C)CCCc3cccnc3)cc2)ccc(C(C)=O)c1O (stereo not given) | 117 to 120 °C

Supply reported melting point belonging to this compound: COC(=O)C1CCc2cc(OCc3nc(-c4ccccc4)oc3C)ccc2C1O (stereo not given)
146 to 147 °C

Identify the reported melting point for the following entry. `COc1cc2nc(N3CCc4ccc([N+](=O)[O-])cc4C3)nc(N)c2cc1OC`
135 to 137 °C

Answer with the recorded melting point for the compound listed here: `N#CCc1cccc(CBr)c1[N+](=O)[O-]`
71 to 73 °C

Please report the measured melting point for `COc1cc(O)ccc1CCCc1ccc(O)cc1`
88 to 89 °C

Look up and state reported melting point for CC1CCC(C(C)C)C(OC(=O)c2ccc(N)cc2O)C1 (stereo not given)
187 to 189 °C

Please give the documented melting point of Nc1c(F)c(N2C[C@@H](N)[C@@H](n3ccnn3)C2)c(F)c2c1c(=O)c(C(=O)O)cn2-c1ccc(F)cc1F (relative stereo)
279 to 281 °C

Determine from records and report melting point for `CC(=Cc1ccc(O)c(Br)c1)[N+](=O)[O-]`
122 to 124 °C

Fill in melting point for record `CCOC(=O)C(=NOCCCl)c1csc(N)n1`
126 to 128 °C

* * *

Below, each of the molecules is paired with its reported melting point value.

- O=C(Nc1cccc2ncccc12)N1CCN2C(=O)OC(c3ccccc3)(c3ccccc3)C2C1 (centres undefined): 234 to 236 °C
- CC(=O)c1cccc(C2=C(c3ccc(S(C)(=O)=O)cc3)OC(C)(C)C2=O)c1: 189 to 190 °C
- COCCN1CC(=O)C(C#N)=C1C#N: 108 to 110 °C
- CCCCCCCCCCCCCCCC(=O)OCC(COC(=O)CCCCCCCCCCCCCCC)OCn1cnc2c(=O)[nH]c(N)nc21: 150 to 154 °C
- CCOC(=O)C=Cc1ccc2c(c1)CC(CNS(=O)(=O)c1ccc(Cl)cc1)C2 (centres undefined): 113 to 115 °C
- COC(=O)c1cccc(S(=O)(=O)Cl)c1C: 46.5 to 50 °C

Give the reported value of melting point for this record: `N=C(N)c1ccc(-c2ccc(-c3ccc(-c4ccc(C(=N)N)cn4)o3)o2)nc1`
> 300 °C

Consider the molecule `CC(C)c1cc(Sc2cc(C(C)C)c(O)c(C(C)C)c2)cc(C(C)C)c1O` and give its recorded melting point.
93.5 to 94.2 °C

Please report the measured melting point for O=C(N[C@@H]1C[C@H]1c1ccccc1)c1ccc2cnccc2n1 (relative stereo)
123 to 124 °C

* * *

// reported melting point for each item listed

See these solved cases before continuing.
• Cc1cc2[nH]c(=O)c3cnc(Cl)cc3n2n1 = > 300 °C
• c1ccc(-c2ccc(-c3nc4n(n3)CCc3ccccc3-4)cc2)cc1 = 143 to 144 °C
• O=S(=O)(c1ccc(Cl)cc1)c1ccc(NCc2nnn[nH]2)cc1 = 102 to 105 °C
• CS(=O)(=O)Nc1nc(CCCN2CCN(C(c3ccccc3)c3ccccc3)CC2)cs1 = 181 to 183 °C
• CNc1nc(-c2cccc(-c3ccccc3)c2)c2cc(OC)c(OC)cc2n1 = 183 to 185 °C
• FC(F)(F)c1cc(Cl)c(Oc2cc(C3CC3)[nH]n2)c(Cl)c1 = 119 to 121 °C

Kindly indicate its recorded melting point. Item: `CCOC(=O)N=P(c1ccccc1)(c1ccccc1)c1ccccc1OC`
80 to 83 °C

Answer with the recorded melting point of O=C(O)CSc1cccc2c1S(=S)N=N2 (stereo unspecified) only.
207 to 209 °C

Give melting point for `CCCCc1nc2c(N)nc(C)c(C)c2n1CC(C)(C)NS(C)(=O)=O`
90 to 92 °C

Give the value of melting point reported for the following: `CCOc1cc(CN2CCc3cc(O)ccc3C2)cc(OCC)c1OCC`
140 to 142 °C

Find the measured melting point of `COc1cccc(CCCC(=O)O)c1OC` and report it.
58 to 59 °C

Return value of melting point for input `C=CCn1c(C)c(C)c2cnnc(SCc3ccc(Cl)cc3)c21` , no commentary.
107 to 108 °C

// Input: `CCOc1ccc(-c2nc(OC(C)=O)c(-c3ccccc3)s2)cc1` . Output its melting point only.
149 to 150 °C

Please list melting point recorded for the molecule `COc1cc(C)nc(NC(=O)NS(=O)(=O)c2ccsc2C2=CCCCC2)n1`
190 to 192 °C

Look up and state reported melting point for `CN1C(=O)CCn2nc(-c3ccc(F)cc3)c(-c3ccncc3)c21`
185 to 186 °C

* * *

Reported melting point by item:

Determine its reported melting point: O=c1[nH]c2ncc(-c3ccc(O)cc3)nc2n1CC1CCOC1 (stereo not given)
256 to 258 °C

Supply measured melting point of `Cc1nc2c(N)nc3c(c2n1CC(C)(C)OCCS(C)(=O)=O)CCCC3` in your reply.
226 to 229 °C

Provide one value: measured melting point of CCCN(CCC)C1Cc2cccc3nc(N)n(c23)C1 (stereo not given)
160 to 170 °C

Kindly indicate its recorded melting point. Item: `O=C(NN=Cc1ccnc2ccccc12)C1CCC1`
138 °C

Dear colleague, please send me the reported melting point for `CC(=O)c1ccc2c(c1)C(=O)c1ccccc1CN2` when you can.
206 to 207 °C

Provide one value: measured melting point of OC(c1ccc(Cl)cc1)c1cc2ccncc2[nH]1 (stereo not given)
176 to 180 °C

Assign melting point to the following record: `COc1cc(OC)nc(NC(=O)NS(=O)(=O)c2c(C)nsc2OCC(Cl)(Cl)Cl)n1`
176 to 180 °C

Return melting point for the following compound: `CCOc1ccc(OCc2ccc(OCc3nc(-c4ccccc4)oc3C)cc2)cc1CCC(=O)O`
129 to 130 °C

Retrieve melting point measured for `COCCCNc1nc(N)c(Cl)c(Cl)n1` and print it.
114 °C

Could you please provide reported melting point for `Cc1cc(C)nc(-n2ccnc2SCc2ccccc2NC=O)c1` ? Thanks!
124 to 126 °C
